Below is a list of entries, each paired with its recorded amyloid nucleation score value.
Assay: amyloid nucleation score (Sup35N fusion, yeast selection) (log enrichment); library NNK2; higher = more nucleation; inactive = no reads after selection;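 note: zero at mode of non-aggregating sequences after 7 days selection at 30°C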
Form: value (number only, do not type unit).

Answered examples (4):
GRGAAILYMECYAVAEVCTF    0.108
PCLRKNRYRLWLYTMVIQTQ    0.806
CVHIKEVLAWLDRCGLGYVW    0.662
ALLDHFPDEGHFKATFISSI    0.85

Read the next record carefully.
Query: # return recorded amyloid nucleation score for entry SGHGLWLDAWCRLLDNRGYL
Result: -0.403

* * *

Assay: amyloid nucleation score (Sup35N fusion, yeast selection) (log enrichment); library NNK3; higher = more nucleation; inactive = no reads after selection
observed property: amyloid nucleation score

Consider the worked cases shown below.
ARTGYNGYQFRSGRALEITG    inactive
NFNCSANWYHLSLLTMNHEV    inactive
NIIYRVGSQYSL    inactive
SIFAVSGLSVF    inactive
SRTSYYMPTIPCMMPMN    inactive
GVTLTTLDSLSDFGWLIE    inactive
TQAWSTL    inactive
REGSDHRFMICETFYFE    inactive

Query: Output amyloid nucleation score of LDIFKISDTWMFDGQLTHLL
Result: inactive

Query: Please supply the value of reported amyloid nucleation score for the item LVNGVHLREWVTPRVECGSF
Result: inactive

Query: Item SCLMLSIYSSQTWKSLCGLK : provide amyloid nucleation score
Result: 0.95

Query: Read the entry CFGISLTESMSTSQNVVLDH and write its reported amyloid nucleation score.
Result: inactive

Query: Give the reported amyloid nucleation score for this substance. KLSSFSSLQIYTWYMILG
Result: inactive

* * *

Test: amyloid nucleation score (Sup35N fusion, yeast selection) (log enrichment); library NNK2; higher = more nucleation; inactive = no reads after selection
observed property: amyloid nucleation score
Please respond with just the number, no unit label.

Take a look at these entries with their results.
YSSFFHFRVCNLCRWGSVSN    0.121
VMYLLNFNIMGGLSRIIGGI    6.47
ISLRMKEHVICSLVPFMSQI    0.664
SCAVSIVTGRGVHSFVKAWF    0.547
RIIGTDLSRLWWIKFKVKRG    -0.091
NVFLLSVREMSSFLRTTTLG    1.24
FGSALFSIILH    5.61
EGFEFCWINNMDWSMPWVTN    5.08
RISECAIYARTGSYMSMRRR    4.08
HTYVRVYLRGELCHPNCMNA    6.35

Query: Look up and state reported amyloid nucleation score for TYVAFGGWLLEMPMLPTWSQ
Result: 0.332

Query: Identify measured amyloid nucleation score corresponding to THIFVWNHFNLLRYTTKFLP
Result: -0.304

Query: Let me know recorded amyloid nucleation score for WKNYRNMEWCVSSVLSFFYV , thanks.
Result: 5.31

Query: Supply measured amyloid nucleation score of LAHVVNIVCFNF in your reply.
Result: 7.84

Query: Please supply the value of reported amyloid nucleation score for the item LNMPLLYDYPCYNSWDRYYS
Result: -1.5

* * *

Assay: amyloid nucleation score (Sup35N fusion, yeast selection) (log enrichment); library NNK3; higher = more nucleation; inactive = no reads after selection
observed property: amyloid nucleation score

In the examples that follow, each entry is paired with its recorded amyloid nucleation score.
CELGNIVHS    inactive
RKKESYSN    inactive
LSLLVTLG    inactive
PMYTMRVWLMMSS    inactive
IHCGACYSACWVRLGAWMTC    inactive
MSTLVTMYHYGVGGCVWFYL    inactive
MSNRVMLKNYSLELEEIGRK    inactive
FGCQTGWRFRFINSNNR    1.25
VWTGWSKRGSSVA    inactive
CIPPCW    inactive

Query: Provide measured amyloid nucleation score value, entry: TLSLVQQSR
Result: inactive

Query: State its amyloid nucleation score for this substance: FFYDLMYLIMV
Result: inactive

Query: Quickly give me recorded amyloid nucleation score for DRVSANLTFLSS
Result: inactive

Query: Report measured amyloid nucleation score; entry is PAELGVVSMCGFLGSAAYQE
Result: inactive

Query: For RFCRSSWMYPVEGQVGHIRE , write its amyloid nucleation score.
Result: inactive
